Tested on: Enterococcus sp.
protocol: in vitro antibacterial evaluation, MIC by broth dilution
Assay type: cell-based
condition.summary: broth dilution, inoculum 5×10^5 CFU/mL, 18 hours at 35° C.; strain GC 4553
measure.name: MIC Enterococcus faecalis (GC 4553) (µg/mL)
Please reply with the bare figure in µg/mL and do not write the unit itself.

# molecule, MIC Enterococcus faecalis (GC 4553) / µg/mL
data = [
    ("N=C1NCC(C(O)C2NC(=O)C(Cc3ccc(OC4OC(CO)C(OC5OC6COC(CCc7ccccc7)OC6C(O)C5O)C(O)C4O)cc3)NC(=O)C(CC3CCCCC3)NC(=O)CNC(=O)C(CO)NC(=O)C(C(O)C3CNC(=N)N3C3OC(CO)C(O)C(O)C3O)NC2=O)N1 (stereo not drawn)", 1),
    ("CC(c1ccccc1)C1NC(=O)CNC(=O)C(CO)NC(=O)C(C(O)C2CNC(=N)N2C2OC(CO)C(O)C(O)C2O)NC(=O)C(C(O)C2CNC(=N)N2)NC(=O)C(Cc2ccc(OC3OC(CO)C(OC4OC5COC6(CC(C)(C)CC(C)(C)C6)OC5C(O)C4O)C(O)C3O)cc2)NC1=O (stereo not drawn)", 4),
    ("CC(c1ccccc1)C1NC(=O)CNC(=O)C(CO)NC(=O)C(C(O)C2CN(c3nc4ccccc4o3)C(=N)N2C2OC(CO)C(O)C(O)C2O)NC(=O)C(C(O)C2CNC(=Nc3nc4ccccc4o3)N2)NC(=O)C(Cc2ccc(OC3OC(CO)C(OC4OC5COC6(OC5C(O)C4O)C4CC5CC(C4)CC6C5)C(O)C3O)cc2)NC1=O (stereo not drawn)", 8),
    ("CC(c1ccccc1)C1NC(=O)CNC(=O)C(CO)NC(=O)C(C(O)C2CNC(=N)N2C2OC(CO)C(O)C(O)C2O)NC(=O)C(C(O)C2CNC(=N)N2)NC(=O)C(Cc2ccc(OC3OC(CO)C(OC4OC5COC(c6ccc(-c7ccc(Cl)cc7)cc6)OC5C(O)C4O)C(O)C3O)cc2)NC1=O (stereo not drawn)", 2),
    ("N=C1NCC(C(O)C2NC(=O)C(Cc3ccc(OC4OC(CO)C(OC5OC6COC(c7ccccc7)OC6C(O)C5O)C(O)C4O)cc3)NC(=O)C(CC3CCCCC3)NC(=O)CNC(=O)C(CO)NC(=O)C(C(O)C3CNC(=N)N3C3OC(CO)C(O)C(O)C3O)NC2=O)N1 (stereo not drawn)", 4),
]

// switching to the query molecule
Q) Input CCCC(C)C1OCC2OC(OC3C(CO)OC(Oc4ccc(CC5NC(=O)C(C(C)c6ccc(Cl)cc6)NC(=O)CNC(=O)C(CO)NC(=O)C(C(O)C6CNC(=N)N6C6OC(CO)C(O)C(O)C6O)NC(=O)C(C(O)C6CNC(=N)N6)NC5=O)cc4)C(O)C3O)C(O)C(O)C2O1 (stereo not drawn) , output reported MIC Enterococcus faecalis (GC 4553).
A) 2
